Target: P2 purinergic receptor
Experiment: Intact myocyte binding with the P2-selective radioligand [35S]ADPβS
Settings: intact myocytes; radioligand range 0.5-200 nM; read-out: Kd of low-affinity [35S]ADPβS binding site
PARAMETER: pKd
Note: pKd values are expressed as the negative base-10 logarithm of concentration in M.

pKd value, target or system P2 purinergic receptor, for Nc1ncnc2c1ncn2[C@@H]1O[C@H](COP(=O)(O)OP(O)(O)=S)[C@@H](O)[C@H]1O [[^35S] ADPβS, [^35S] 5′-O-2-thiodiphosphate] : 7.40

Source of measurements: patent US7348315B2
